- Tested on: MET
- run description: MET biochemical kinase assay
- Design: species or system human; concentration or dose not given beside the values
observation type: Met Kinase % Inhibition
The answer consists of two parts: a number and, after it, its unit.

{"compound": "O=C1Nc2ccc(S(=O)(=O)Nc3ccc(C(F)(F)F)cc3)cc2C1=Cc1c(F)cccc1C(F)(F)F [10728/E09]", "assayed system": "MET", "observation type": "Met Kinase % Inhibition", "observed result": "40.0%"}
{"compound": "O=C1Nc2ccc(CCCl)cc2C1=Cc1ncc[nH]1 [10720/G11]", "assayed system": "MET", "observation type": "Met Kinase % Inhibition", "observed result": "36.2%"}
{"compound": "O=C1Nc2ccc(I)cc2C1=Cc1ccc(O)c(O)c1 [10719/B03]", "assayed system": "MET", "observation type": "Met Kinase % Inhibition", "observed result": "85.8%"}
{"compound": "O=C1Nc2ccc(CCCl)cc2C1=Cc1cc(Br)cc(Br)c1O [10734/G07]", "assayed system": "MET", "observation type": "Met Kinase % Inhibition", "observed result": "96.6%"}

Problem: Requested read-out Met Kinase % Inhibition, target or system MET, entry Cc1ccc(C=C2C(=O)Nc3ccc(S(=O)(=O)N4CCOCC4)cc32)s1 [10717/F07]
Result: 37.6%

Problem: Record lookup: for MET, what Met Kinase % Inhibition belongs to O=C1Nc2ccc(S(=O)(=O)Nc3ccc(C(F)(F)F)cc3)cc2C1=Cc1sccc1Br [10725/E02] ?
Result: 40.2%

Problem: Return Met Kinase % Inhibition measured with MET given this compound: CCOC(=O)c1c(C)[nH]c(C=C2C(=O)Nc3ccc(CCCl)cc32)c1C [10718/G02]
Result: 67.7%

Problem: So what Met Kinase % Inhibition did Cc1c(Br)ccc2c1C(=Cc1cc(Br)c(OCc3ccccc3)c(C(C)(C)C)c1)C(=O)N2 [10732/C08] get with MET?
Result: 54.5%

Problem: API: value(readout= Met Kinase % Inhibition, system= MET, query= O=C1Nc2c(Br)cc(Br)cc2C1=Cc1c(O)cc(O)cc1O [10722/A03] )
Result: 90.3%

Just for reference, patent EP1247803A2 is where these values come from.
